B1: KRT18 (parent)
chain: RAQYDELARKNREELDKYWSQQIE

Variants of: B1
experimental.protocol: protein stability index of a GFP-peptide fusion (GPS, HEK-293T) (PSI 1-6); higher = more stable;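 further: lentivirally expressed fusions sorted by FACS into six bins by GFP to DsRed ratio, PSI derived from sequencing read proportions per bin multiplied by bin number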
experimental.setup: c terminus: a fixed tail appended
measured.property: protein stability index

> print(dat)
    mutation.notation        measured.property  recorded.number
 1               K10G  protein stability index             4.05
 2               W19E  protein stability index             5.28
 3                Q3E  protein stability index             3.19
 4               N11V  protein stability index             2.75
 5               K17E  protein stability index             3.94
 6               R12V  protein stability index             4.34
 7               E24W  protein stability index              2.5
 8                R9C  protein stability index              3.6
 9                A8D  protein stability index              4.2
10               L15D  protein stability index              4.9
11                R9N  protein stability index             3.46
12               S20N  protein stability index             2.79
13               E13F  protein stability index              3.1
14               E13N  protein stability index             3.58
15               K17H  protein stability index             3.14
16               R12W  protein stability index             4.56
17               Q22S  protein stability index             3.82
18               E13W  protein stability index             2.65
19                Q3V  protein stability index             2.31
20               N11W  protein stability index             2.63
21               E14H  protein stability index             3.29
22                A8F  protein stability index             3.41
23               W19L  protein stability index             4.42
24               W19R  protein stability index             4.71
25               Y18R  protein stability index             4.09
26               S20C  protein stability index             2.63
27               K17F  protein stability index             3.62
28                R1D  protein stability index             2.87
29               Y18N  protein stability index             4.92
30                R9H  protein stability index              3.4
31                R9L  protein stability index             3.27
32               D16I  protein stability index             2.15
33                Y4W  protein stability index             2.48
34               Y18D  protein stability index             5.12
35               E13K  protein stability index              3.2
36               S20G  protein stability index             3.97
37               E24K  protein stability index             3.34
38               W19I  protein stability index              4.5
39               Q21M  protein stability index             2.98
40               E13S  protein stability index             3.96
41               W19T  protein stability index             4.97
42                L7Q  protein stability index             3.78
43               Y18H  protein stability index             4.06
44               N11K  protein stability index             3.96
45               L15E  protein stability index             3.98
46                A2C  protein stability index             2.48
47               N11M  protein stability index             2.81
48               Y18S  protein stability index             4.51
49               N11P  protein stability index             4.02
50               I23R  protein stability index             4.68
51               E14Q  protein stability index             3.85
52                A2N  protein stability index             2.52
53               L15H  protein stability index             4.25
54               K10I  protein stability index             2.79
55               E14D  protein stability index             3.94
56                A2H  protein stability index             3.23
57                Q3C  protein stability index             2.51
58               Y18M  protein stability index             4.36
59               W19Y  protein stability index             4.58
60                R9I  protein stability index             3.34
61               E14N  protein stability index             3.04
62               L15S  protein stability index             4.19
63                D5Y  protein stability index             3.28
64                Y4C  protein stability index             3.44
65               Y18P  protein stability index             4.34
66               E14R  protein stability index             2.87
67               N11C  protein stability index             2.81
68               K17N  protein stability index             3.02
69               Q21D  protein stability index             2.88
70               E13Y  protein stability index             3.05
71               Q22W  protein stability index                4
72                A8P  protein stability index             4.42
73                Y4N  protein stability index             3.68
74               D16S  protein stability index             2.36
75                L7Y  protein stability index             3.06
76                Y4P  protein stability index             3.67
77               L15I  protein stability index             3.94
78                A8V  protein stability index              2.6
79               E24I  protein stability index             3.12
80               K10S  protein stability index             3.23
81               W19H  protein stability index             4.85
82               W19M  protein stability index             5.01
83               K10E  protein stability index             3.33
84                A8C  protein stability index             2.75
85               Q21N  protein stability index             3.71
86               E24F  protein stability index             3.16
87               S20L  protein stability index             2.33
88               Q22C  protein stability index             2.31
89               Y18Q  protein stability index             4.77
